Source of measurements: patent US20220185900A1

# SYSTEM TESTED: T1, Macaca fascicularis (mf) RET.mmh (Macaca fascicularis)
# T1 construct: also called monkey RET
# T1 chain: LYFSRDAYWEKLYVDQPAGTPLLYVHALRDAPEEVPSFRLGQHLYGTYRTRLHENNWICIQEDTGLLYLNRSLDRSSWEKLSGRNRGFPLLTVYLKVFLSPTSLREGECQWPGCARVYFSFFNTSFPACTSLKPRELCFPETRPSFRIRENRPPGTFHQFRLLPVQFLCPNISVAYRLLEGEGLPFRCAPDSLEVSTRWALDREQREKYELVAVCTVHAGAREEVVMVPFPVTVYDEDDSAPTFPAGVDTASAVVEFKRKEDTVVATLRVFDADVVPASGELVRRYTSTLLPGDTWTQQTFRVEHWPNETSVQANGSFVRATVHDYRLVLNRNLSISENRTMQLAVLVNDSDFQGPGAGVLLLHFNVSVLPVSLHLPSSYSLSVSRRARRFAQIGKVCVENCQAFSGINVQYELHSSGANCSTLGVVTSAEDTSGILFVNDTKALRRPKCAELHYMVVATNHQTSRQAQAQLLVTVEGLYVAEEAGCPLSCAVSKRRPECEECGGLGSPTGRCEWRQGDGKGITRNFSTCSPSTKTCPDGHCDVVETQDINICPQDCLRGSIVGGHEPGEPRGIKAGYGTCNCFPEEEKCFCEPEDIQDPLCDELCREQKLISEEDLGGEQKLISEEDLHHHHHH
# ASSAY METHOD TEXT: SPR Biacore T200, mAb capture, 37 C
Form field: t½ (one value per entry).
Value expressed in min; do not type the unit.

# count of solved cases: 2
BINDER	REPORTED MEASUREMENT
H4H8067P (antibody, human IgG4, V domains shown, human IgG4 Fc (H4H prefix)) VH: QVQLVESGGGVVQPGRSLRLSCVASGFTFSNYGMHWVRQAPGKGLEWVALIWYDGSNKYFADSVKGRFTISRDNSKRMMFLEMNSLRAEDTAIYYCTRDRLFDFWGQGTLVTVSS VL: AIQMTQSPSSLSASVGDRVSITCRASQDIRHDLGWFHQKPGKAPKLLIYAASTLQSGVPSRFGGSGSGTDFTLTITSLQPEDFGTYYCLQDYNYPATFGQGTRLEIK	0.2
H4H8084P (antibody, human IgG4, V domains shown, human IgG4 Fc (H4H prefix)) VH: QVQLVESGGGVVQPGRSLRLSCEASGFTFRNYGMHWVRQAPGKGLDWVSTIYYDGSDEYYSDSVKGRFTISRDNSKNTLYLQMNSLRAEDTAVYYCARDPPSFRYFDYWGQGTLVTVSS VL: DIQMTQSPSTLSASVGDRVTITCRASQSIRSWLTWYQQKPGKAPKVLIYKASTLERGVPSRFSGSGSGTEFTLTISSLQPEDFATYYCHQYSSYSYTFGQGTKLEIK	6

Query binder follows.
Output measured t½ for this item: H4H8056P (antibody, human IgG4, V domains shown, human IgG4 Fc (H4H prefix)) VH: QVQLVESGGGVVQPGRSLRLSCAASGFTFRNYGMHWVRQAPGKGLEWVAVKRYDGSDEYFVDSVKGRFTISRDNSKNTLFLQMNSLRVDDTAVYYCARETPITGTTLDYWGQGTLVTVSS VL: DIQMTQSPSSLSASVGDRVTITCRTSQSITNYLNWYQQKPGKAPKLLIYAASRSQSGVPSRFSGSGSGTDFTLTISSLQPEDFATYYCQQSYSTPLTFGGGTKVEIK
4
